MEASUREMENT_TARGET: T1, human TSLP (human, UniProt Q969D9 29-159)
T1 construct: also called hTSLP; rhTSLP
TEST_PROTOCOL: SPR
Listing of recorded pKd by entry.
Give only the number. pKd is defined as minus log10 of concentration in molar units.

BINDER	pKd
BDG38.131 (antibody, V domains shown, IgG1) VH: QMQLVESGGGVVQPGRSLTLSCAASGFEFRTYGMHWVRQAPGKGLEWVAVIWDDGSNTHYADSVKGRFTITRDNSKNTLNLQMNSLRAEDTAVYYCVRAPQWYLTAEAFDLWGQGTMVTVSS VL: SYILTQPPSVSVAPGETATITCGGNLIGAKLVHWYQQKPGQAPVLVIYDDSDRPSRIPERFSGSNIGNTATLTISDVEEGDEADYYCQVWDYYSNTMVFGGGTKLTVL	13.13
BDG38.128 (antibody, V domains shown, IgG1) VH: QMQLVESGGGVVQPGRSLTLSCAASGFEFRTYGMHWVRQAPGKGLEWVAVIWDDGSNTHYADSVKGRFTITRDNSKNTLNLQMNSLRVEDTAVYYCVRAPQWYLTAEAFDLWGQGTMVTVSS VL: SYILTQPPSVSVAPGETATITCGGNLIGAKLVHWYQQKPGQAPVLVIYDDSDRPSRIPERFSGSNSGNTATLTISDVEEGDEADYYCQVWDYYADTMVFGGGTKLTVL	11.04

Task item: Sample BDG38.132 (antibody, V domains shown, IgG1) VH: QMQLVESGGGVVQPGRSLRLSCAASGFEFRTYGMHWVRQAPGKGLEWVGVIWDDGSNTHYADSVKGRFTITRDNSKNTLNLQMNSLRAEDTAVYYCVRAPQWYLTAEAFDLWGQGTMVTVSS VL: SYILTQPPSVSVAPGETATITCGGNLIGARLVHWYQQKPGQAPVLVIYDDSDRPSRIPERFSGSNIGNTATLTISRVEAGDEADYYCQVWDYSSDHMVFGGGTKLTVL — what was its pKd?
Reply: 11.47
